normalized growth: recorded values
experiment: chemical genetic growth profiling, strain panel (AID 1159580);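 further: tested at 20 µM; growth read once vehicle control cultures reached saturation at 30 °C; 1 = growth at the plate median or of vehicle wells; lower values mean less growth of the strain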; settings: S. cerevisiae deletion strains, growth OD, locus YDL035C, strain GPR1, stronger effect = lower value
The campaign covered roughly 5,500 compounds. About 2,000 (36%) were called active. Not shown: some 18% with an inconclusive outcome. This is one part of the list.
Lab note: record the figure alone, no unit after it.

Cc1ccc(C(=O)c2ccc(CC(=O)O)n2C)cc1 = 1.01
C[C@]12CCC3c4ccc(OC(=O)CCC(=O)O)cc4CCC3C1CCC2=O (stereo partly specified) = 0.871
COC(=O)[C@@H]1OC(=O)C2OC23[C@@]1(C)CCC1[C@@]2(C)CCC(=O)C(C)(C)C2C[C@@H](OC(C)=O)[C@]13C (stereo partly specified) = 1.05
CC(=O)O[C@@H]1CC2C(C)(C)[C@H](O)CC[C@]2(C)C2CC[C@@]3(C)[C@H](c4ccoc4)OC(=O)[C@H]4O[C@]43[C@@]21C (stereo partly specified) = 0.983
CN[C@@H]1C(OC2[C@H](O[C@H]3[C@H](O)[C@@H](O)[C@H](N=C(N)N)[C@@H](O)[C@@H]3N=C(N)N)OC(C)[C@]2(O)CO)OC(CO)C(O)C1O (stereo partly specified) = 1.03

// normalized growth lookup, key: "CN(C)C(=O)Oc1ccc[n+](C)c1"
1.03

----------
Listing: normalized growth of selected molecules
assay: chemical genetic growth profiling, strain panel (AID 1159580); settings: S. cerevisiae deletion strains, growth OD, locus YMR078C, strain ctf18, stronger effect = lower value
The whole screen tested about 5,500 compounds, of which about 2,000 (36%) were called active. Another 18% or so got no clear call; they are omitted. The list shows a part of the results.
Just the number.

// solved cases for normalized growth follow
COc1cc(OC)c2c(=O)cc(-c3ccccc3)oc2c1 = 0.912
COC(=O)[C@@H]1OC(=O)C2OC23[C@@]1(C)CCC1[C@@]2(C)CCC(=O)C(C)(C)C2C[C@@H](OC(C)=O)[C@]13C (some centres not stated) = 0.998
NCCCNCCSP(=O)(O)O = 0.981
CC12CCC3C(=CCc4cc(O)ccc43)C1CCC2=O (configuration not stated) = 0.994
COc1cc(C)c2c(=O)cc(-c3ccccc3)oc2c1 = 0.952

I would be grateful if you could share the reported normalized growth for "OC[C@H]1O[C@@H](n2cnc3c(NCc4ccco4)ncnc32)[C@H](O)[C@@H]1O" .
0.998

Again, but for "CCCn1c(=O)c2[nH]c(C3CCCC3)nc2n(CCC)c1=O"
0.972

----------
assay: chemical genetic growth profiling, strain panel (AID 1159580); details: S. cerevisiae deletion strains, growth OD, locus YGL248W, strain PDE1, stronger effect = lower value
Hit rate of the full screen: of about 5,500 compounds, about 2,000 (36%) were called active. Not shown: some 18% with an inconclusive outcome. Some of the results follow. Where a SMILES comes first, the peptide text is derived from it.
assayEndpoint: normalized growth
Respond using a number only.

Example entries begin here.
CC(=O)N[C@@H](CCC(=O)O)C(=O)O = 1
C1N2CN3CN1CN(C2)C3 = 0.973
NC1(C(=O)O)CC1 = 1.01
CC(=O)N[C@@H](CC(=O)O)C(=O)N[C@@H](CCC(=O)O)C(=O)O (Ac-Asp-Glu-OH) = 1.02
NC1(C(=O)O)CCCC1 = 1.01

Look up normalized growth: "FC(F)(F)c1cccc(N2CCNCC2)c1"
1.01

Also, C[C@]12CCC3C(CC[C@H]4C[C@@H](O)CC[C@]34C)C1CC[C@@H]2O (some centres undefined) please.
1.02

Then what about the compound "CN1CCC[C@@H]1CCO[C@](C)(c1ccccc1)c1ccc(Cl)cc1" ?
1.01

Cool, now CC(=O)OCC(=O)[C@@]1(O)CCC2C3CCC4=CC(=O)C=CC4(C)C3[C@@H](O)C[C@@]21C (some centres undefined)
1.01

----------
test: chemical genetic growth profiling, strain panel (AID 1159580);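 further: tested at 20 µM; growth read once vehicle control cultures reached saturation at 30 °C; 1 = growth at the plate median or of vehicle wells; lower values mean less growth of the strain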; conditions: S. cerevisiae strains, growth OD, strain wild type, stronger effect = lower value
Hit rate of the full screen: of about 5,500 compounds, about 2,000 (36%) were called active. Not shown: some 18% with an inconclusive outcome. This is one part of the list.
Quick reference for normalized growth among some molecules
Respond using a number only.

Solved entries:
O=c1oc2ccccc2cc1[N+](=O)[O-] = 0.0506
CCCN(CCC)S(=O)(=O)c1ccc(C(=O)NCC(=O)O)cc1 = 1.01
CCCCCCCCCCCC(=O)OCC(COP(=O)(O)OCC(O)COP(=O)(O)OCC(COC(=O)CCCCCCCCCCC)OC(=O)CCCCCCCCCCC)OC(=O)CCCCCCCCCCC (stereo not drawn) = 0.56
O=C(O)COc1ccc(Cl)cc1Cl = 1.01
C[C@]12CCC3c4ccc(OC(=O)CCC(=O)O)cc4CCC3C1CCC2=O (stereo partly drawn) = 0.95
c1ccc(-c2csc(-c3cccnc3)n2)cc1 = 0.949
CC(=O)O[C@H]1CC[C@@]2(C)C(C[C@@H](OC(C)=O)[C@]3(C)C2CC[C@@]2(C)[C@H](c4ccoc4)OC(=O)[C@H]4O[C@]423)C1(C)C (stereo partly drawn) = 1.02
NC(C(=O)O)C(O)C(=O)O (stereo not drawn) = 1.01

Give the measured normalized growth of O=C(O)C1CCCNC1 (stereo not drawn) .
1.01

Then this molecule: "O=S(=O)(NCCc1ccncc1)c1cc(C(F)(F)F)cc(C(F)(F)F)c1"
0.979

Likewise for "Cc1cc2c3c(c1)c(O)cc(=O)n3CCC2" ?
0.967

Next molecule: "O=C1CCc2cccc3cccc1c23"
0.949

Also CC(=O)OCC(=O)[C@@]1(O)CCC2C3CCC4=CC(=O)C=CC4(C)C3[C@@H](O)C[C@@]21C (stereo partly drawn) , if possible.
1

----------
test: chemical genetic growth profiling, strain panel (AID 1159580);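 further: tested at 20 µM; growth read once vehicle control cultures reached saturation at 30 °C; 1 = growth at the plate median or of vehicle wells; lower values mean less growth of the strain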; conditions: S. cerevisiae deletion strains, growth OD, locus YNL209W, strain ssb2, stronger effect = lower value
Screen size: about 5,500 compounds; about 2,000 (36%) were called active. Roughly 18% stayed inconclusive and do not appear here. The list shows a part of the results.
This section presents molecules with their documented normalized growth values.
Form: value (number only, do not type unit).

Example entries begin here.
CC(=O)Oc1c2c(c(CC=C(C)C)c3c1C(=O)C1=C[C@@H]4CC5C(C)(C)OC(C/C=C(\C)C(=O)O)(C4=O)[C@@]15O3)OC(C)(CCC=C(C)C)C=C2 (some centres undefined) = 0.977
COP(=S)(OC)Oc1ccc([N+](=O)[O-])cc1 = 0.993
C[C@H]1C[C@@H](O)[C@]2(O)[C@@]13CC(=O)OC[C@@]2(C)[C@](C)(O)C(=O)C3 = 1.02
NC(C(=O)O)C(O)C(=O)O (centres undefined) = 0.982
CC(O)(P(=O)(O)O)P(=O)(O)O = 0.994
CC1C/C=C/C=C/C=C/C=C/C(O[C@@H]2O[C@H](C)[C@@H](O)[C@H](N)[C@@H]2O)CC2OC(O)(CC(O)CC3OC3/C=C/C(=O)O1)CC(O)C2C(=O)O (some centres undefined) = 0.999
CC(C)(S)[C@@H](N)C(=O)O = 0.997
N[C@@H](C(=O)O)[C@@H](O)[C@H](O)[C@H](O)CO = 1.02

API: the following record is the query input.
For the molecule CCC(C)C(=O)c1c(O)c(C)c2oc3c(C)c(O)c(C(=O)C(C)CC)c(O)c3c2c1O (centres undefined) , what normalized growth is on record?
0.982

----------
assay: chemical genetic growth profiling, strain panel (AID 1159580);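 further: tested at 20 µM; growth read once vehicle control cultures reached saturation at 30 °C; 1 = growth at the plate median or of vehicle wells; lower values mean less growth of the strain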; details: S. cerevisiae deletion strains, growth OD, strain wtn01, stronger effect = lower value
Hit rate of the full screen: of about 5,500 compounds, about 2,000 (36%) were called active. Another 18% or so got no clear call; they are omitted. This is one part of the list.
Please assign Criterion not met whenever normalized growth is at or above 1, and Criterion met whenever it is below.

Use the examples below as a reference point.
CC(=O)O[C@]1(C)CC[C@@]23CC1C(C)(C)[C@@H]2CC[C@H]3C = Criterion not met
COc1ccc2c(=O)c(OC)c(-c3ccccc3)oc2c1 = Criterion met
Clc1ccc(COC(Cn2ccnc2)c2ccc(Cl)cc2Cl)c(Cl)c1 (stereo unspecified) = Criterion met

Say whether its normalized growth is strictly beneath 1. Entry: "COc1ccc2oc3ccccc3c(=O)c2c1"
Criterion met

// query: CC1OC(O[C@H]2/C=C/C=C/C=C/C=C/C=C/C=C/C=C/[C@H](C)[C@@H](O)[C@@H](C)[C@H](C)OC(=O)CC(O)CC(O)CCC(O)C(O)CC(O)C[C@]3(O)C[C@H](O)C(C(=O)O)C(C2)O3)C(O)[C@H](N)C1O (stereo partly specified)
Criterion not met
